These measurements were taken from patent US20170145104A1.

Recorded EC50 for the following binders
Target: T1, human GITR, membrane bound (on activated human T cells and on 3A9-hGITR cells) (human, UniProt Q9Y5U5 26-241)
T1 construct: whole, on cells; the cell is named under assay; also called huGITR; TNFRSF18
T1 sequence (looked up): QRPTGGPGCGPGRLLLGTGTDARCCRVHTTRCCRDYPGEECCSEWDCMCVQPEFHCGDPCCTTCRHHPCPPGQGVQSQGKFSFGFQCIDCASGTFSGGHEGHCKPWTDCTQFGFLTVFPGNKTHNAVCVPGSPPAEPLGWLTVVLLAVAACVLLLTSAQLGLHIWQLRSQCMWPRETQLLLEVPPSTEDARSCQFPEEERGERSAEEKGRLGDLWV
Assay: FACS binding to 3A9-hGITR transfectant, Geo-MFI (PE); EC50 table beside the curves; unit from the axis
# value in nM; strip the unit string

binder	meas.value
28F3 VH CDR3 mutant M98F, D106E (antibody, V domains shown, also called A5) VH: QVQLVESGGGVVQPGRSLRLSCAASGFTFSSYGMHWVRQAPGKGLEWVAVIWYEGSNKYYADSVKGRFTISRDNSKNTLYLQMNSLRAEDTAVYYCARGGSFVRGEYYYGMDVWGQGTTVTVSS VL: AIQLTQSPSSLSASVGDRVTITCRASQGISSALAWYQQKPGKAPKLLIYDASSLESGVPSRFSGSGSGTDFTLTISSLQPEDFATYYCQQFNSYPYTFGQGTKLEIK	0.683

IN: # get_value(readout='EC50', item= 28F3 VH CDR3 mutant M98Q (antibody, V domains shown, also called D6) VH: QVQLVESGGGVVQPGRSLRLSCAASGFTFSSYGMHWVRQAPGKGLEWVAVIWYEGSNKYYADSVKGRFTISRDNSKNTLYLQMNSLRAEDTAVYYCARGGSQVRGDYYYGMDVWGQGTTVTVSS VL: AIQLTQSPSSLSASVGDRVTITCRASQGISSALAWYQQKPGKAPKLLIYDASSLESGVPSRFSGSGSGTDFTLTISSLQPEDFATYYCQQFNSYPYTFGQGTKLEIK )
OUT: 1.44

IN: Try 28F3 VH CDR3 mutant M98Y, D106E (antibody, V domains shown, also called G5) VH: QVQLVESGGGVVQPGRSLRLSCAASGFTFSSYGMHWVRQAPGKGLEWVAVIWYEGSNKYYADSVKGRFTISRDNSKNTLYLQMNSLRAEDTAVYYCARGGSYVRGEYYYGMDVWGQGTTVTVSS VL: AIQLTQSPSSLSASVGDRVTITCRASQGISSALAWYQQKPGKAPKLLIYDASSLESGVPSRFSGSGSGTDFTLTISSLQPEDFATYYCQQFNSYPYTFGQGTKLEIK next.
OUT: 0.798
